system: GAPDH; test: Peg3 promoter luciferase inhibitors, potency, dose response, cell-based, HeLa, CREF/GAPDH counter-screen panel (AID 624167); details: CREF/GAPDH counter-screens, run 1, dose range 1, individual replicate IC50 per panel
quantityKind: pIC50
Give bare numbers, as −log10 of the molar value.

stdin: State the recorded pIC50 for this entry: `CC(C)(C)c1ccc(Cn2c(=O)cnc3ccccc32)cc1`
stdout: 5.22

stdin: Likewise for Cc1ccc(C(C[N+](=O)[O-])Sc2ccc(N)cc2)cc1 (stereo unspecified) ?
stdout: 4.68

Read the next record carefully.
stdin: GET /values?readout=pIC50&item= `Cc1ccc(/C=C2\SC(=S)N(CCCC(=O)Nc3ccccn3)C2=O)cc1`
stdout: 4.75

---

test system: GAPDH; experiment: Peg3 promoter luciferase inhibitors, potency, dose response, cell-based, HeLa, CREF/GAPDH counter-screen panel (AID 624167); settings: CREF/GAPDH counter-screens, run 1, dose range 1, individual replicate IC50 per panel
For each of the compounds below, state its log10(IC50).
Scale: log10; quantity: IC50; unit before log: µM

Known results for compounds:
stdin: Name the reported log10(IC50) value associated with the compound O=C(c1ccco1)N1CCN(C(c2ccccc2Cl)c2nnnn2Cc2cccs2)CC1 (stereo not given)
stdout: 1.16

stdin: Moving on to `CC(=O)c1sc2c(c1OC(=O)c1ccc(Cl)cc1Cl)c(=O)n(-c1ccccc1)c(=S)n2-c1ccccc1`
stdout: 0.45

stdin: Entry to check: `O=C(Nc1ccccc1C(=O)Nc1nnc(C(F)(F)F)s1)c1ccccc1`
stdout: 0.36

stdin: And the next one, COC(COC(N)=O)C1=C(N2CC2)C(=O)C(C)=C(N2CC2)C1=O (stereo not given) ?
stdout: 1.01

stdin: # repeat for CN(C)CC1CCC/C(=C\c2ccc(OC(=O)c3ccc(Cl)cc3)cc2)C1=O (stereo not given)
stdout: 1.70

New cases:
stdin: Requested field: log10(IC50). Item: CCCC(=O)NC(c1ccc(Cl)cc1)c1ccc2cccnc2c1O (stereo not given)
stdout: 1.44

---

biological target: PEG-3 (UniProt Q6IN02); test: Peg3 promoter luciferase inhibitors, potency, dose response, cell-based, HeLa, CREF/GAPDH counter-screen panel (AID 624167); details: HeLa PEG-Prom luciferase reporter, overnight, CREF/GAPDH counter-screens, mean of runs
Sequence (Q6IN02 whole entry, looked up): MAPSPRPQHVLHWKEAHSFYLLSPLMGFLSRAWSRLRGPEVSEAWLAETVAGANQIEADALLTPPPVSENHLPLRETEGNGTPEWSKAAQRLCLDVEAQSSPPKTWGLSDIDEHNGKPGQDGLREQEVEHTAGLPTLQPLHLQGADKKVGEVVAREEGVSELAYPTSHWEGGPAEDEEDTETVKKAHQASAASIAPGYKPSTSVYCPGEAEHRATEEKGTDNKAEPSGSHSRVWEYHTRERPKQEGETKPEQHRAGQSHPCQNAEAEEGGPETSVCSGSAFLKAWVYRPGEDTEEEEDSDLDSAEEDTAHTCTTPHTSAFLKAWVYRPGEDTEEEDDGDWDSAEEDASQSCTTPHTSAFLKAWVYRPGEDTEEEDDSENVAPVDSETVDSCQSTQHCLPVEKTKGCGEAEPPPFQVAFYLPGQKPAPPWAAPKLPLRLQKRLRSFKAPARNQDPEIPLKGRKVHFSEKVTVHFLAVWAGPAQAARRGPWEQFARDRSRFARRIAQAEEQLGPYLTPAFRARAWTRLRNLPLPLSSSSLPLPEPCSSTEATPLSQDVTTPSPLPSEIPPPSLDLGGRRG
Activity calls are given as the source filed them.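 The calls were made as follows: active = mean IC50 for reducing PEG3 promoter reporter signal at or below a set limit, with IC50 above the limit in both counter screens; inactive = the rest, including counter screen hits.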
Entry note: the call must match one of active, inactive

Recorded results for 8 molecules are shown here.
stdin: What call does the record list for `COc1cc(/C=C/[N+](=O)[O-])ccc1OC(=O)/C=C/c1ccc(F)cc1` ?
stdout: inactive

stdin: One more molecule: `O=[N+]([O-])c1cc(F)c(N2CCCCCC2)cc1N1CCNCC1`
stdout: active

stdin: Another: `Cc1cnc(NC(=O)c2ccc3c(c2)OCCO3)s1`
stdout: inactive

stdin: And `COc1cccc(NC(=O)CN(C)C(=O)c2cc(-c3ccc(F)cc3)nc3ccccc23)c1` ?
stdout: inactive

stdin: Also `CCN1C=CC(=C2C(=O)c3ccccc3C2=O)C=C1` , if possible.
stdout: active

stdin: Thanks! And `COc1ccccc1N(C(=O)CCl)c1cn(C(C)=O)c2ccccc12` ?
stdout: inactive

stdin: Proceed to Cc1cnc(NC(=O)C2CC(=O)N(c3cccc(Cl)c3)C2)s1 (stereo unspecified)
stdout: active

stdin: And what about the molecule `COc1ccc(-c2cc(C(=O)Nc3ccccc3N3CCOCC3)c3ccccc3n2)cc1OC` ?
stdout: inactive

New cases:
stdin: Returns: the outcome recorded for CCC(=O)NC(c1ccc(C)cc1)c1ccc2cccnc2c1O (stereo unspecified) in this assay.
stdout: inactive

stdin: Please do the same for `Cc1nc2c(OCc3ccc(OC(F)F)cc3)cccn2c1N(C)C(=O)CCC1CCCC1` as well.
stdout: inactive

stdin: Would you mind doing `COc1ccc(/C=C/c2nc3ccccc3n2C)cc1` as well?
stdout: active

---

system: GAPDH; assay: Peg3 promoter luciferase inhibitors, potency, dose response, cell-based, HeLa, CREF/GAPDH counter-screen panel (AID 624167); conditions: CREF/GAPDH counter-screens, run 1, dose range 1, individual replicate IC50 per panel
quantityKind: log10 of IC50 (log10 of the value in µM)
Log scale reminder: IC50 in µM, then log10 taken.

Consider the reported log10 of IC50 for these compounds:
stdin: Observed log10 of IC50 on GAPDH for `O=C(O)c1ccc(N/N=C/c2ccc3nccnc3c2)cc1` , please.
stdout: 0.13

stdin: Now the compound `O=C(O)c1ccc(N/N=C/c2ccc3c(c2)OCO3)cc1`
stdout: 0.14

stdin: Moving on to COC1CC(C)C(OC)c2cc(O)cc(c2O)NC(=O)C(C)=CC=CC(C)C(OC(N)=O)C(C)=CC(C)C1OC (configuration not stated)
stdout: 1.65

stdin: And the next one, `COc1ccc(Nc2ncnc3ccc(Br)cc23)c(OC)c1` ?
stdout: -0.06

stdin: Check `COc1cc(Nc2c3ccccc3nc3ccccc23)cc(OC)c1OC` too.
stdout: 1.52

stdin: Would you kindly repeat that for CCCC(=O)NC(c1ccc(OC)cc1)c1ccc2cccnc2c1O (configuration not stated) ?
stdout: 1.76

stdin: What about this compound? CCC(c1nnnn1-c1ccc2c(c1)OCCO2)N1CCC(n2c(=O)[nH]c3ccccc32)CC1 (configuration not stated)
stdout: 0.96

stdin: Follow-up entry: `O=C(CCl)N1c2ccccc2Sc2ccc3ccccc3c21`
stdout: 1.43

stdin: And then CCCCC(=O)NC(c1ccccc1OC)c1ccc2cccnc2c1O (configuration not stated) , what is it?
stdout: 1.56

stdin: Subsequent entry: CCC(=O)NC(c1ccc(C)cc1)c1ccc2cccnc2c1O (configuration not stated)
stdout: 1.67

Batch: log10 of IC50 for all items listed.
1. Cc1cc(C)c2sc(NNC(=O)c3ccc(S(=O)(=O)N4CCc5ccccc5C4)cc3)nc2c1
2. Cc1ccccc1CNC(=O)C1CCCN(c2nnc(C)c3c(C)n(-c4ccccc4)nc23)C1 (configuration not stated)

stdout:
[1.02, 1.62]

---

Kindly state pIC50 for each of the entries shown.
system: Rat fibroblasts (CREF); assay: Peg3 promoter luciferase inhibitors, potency, dose response, cell-based, HeLa, CREF/GAPDH counter-screen panel (AID 624167); conditions: CREF/GAPDH counter-screens, run 2, dose range 1, individual replicate IC50 per panel
One number for each entry, as −log10 of the molar value.

Solved cases (3 shown):
stdin: Kindly state the measured pIC50 obtained for `Cc1ccc2nc(-c3ccc(Br)cc3)cn2c1` with Rat fibroblasts (CREF).
stdout: 4.90

stdin: Can you check `Cc1ccc2nc(NC(=O)c3ccccn3)sc2c1` next?
stdout: 5.96

stdin: // query: `COc1cc(C(=O)N/N=C(\c2ccccc2)c2ccccn2)cc(OC)c1OC`
stdout: 4.14

For each entry beneath this line, provide reported pIC50.
1. CN(C)c1c([N+](=O)[O-])cc(N2C(=O)C=CC2=O)cc1[N+](=O)[O-]
2. Cc1ccccc1CNC(=O)C1CCCN(c2nnc(C)c3c(C)n(-c4ccccc4)nc23)C1 (stereo unspecified)

stdout:
[4.76, 4.81]

---

tested on: Rat fibroblasts (CREF); test: Peg3 promoter luciferase inhibitors, potency, dose response, cell-based, HeLa, CREF/GAPDH counter-screen panel (AID 624167); details: CREF/GAPDH counter-screens, mean of runs
Calls of active or inactive are those of the source.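 Rule for the calls: active = mean IC50 for reducing PEG3 promoter reporter signal at or below a set limit, with IC50 above the limit in both counter screens; inactive = the rest, including counter screen hits.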
Pick one and only one: active, inactive

stdin: For `C(=N\Nc1ccc2ccccc2n1)/c1ccc2c(c1)OCCO2` , what call appears in the results of this test?
stdout: inactive

Continuing:
stdin: Please let me know the test result on file for `COc1ccccc1C(=O)Nc1nc2ccccc2s1` .
stdout: active

stdin: Entry `COCCn1c(C)cc(C(=O)COC(=O)c2cccc(O)c2)c1C` please
stdout: active

stdin: Now consider `Cc1ccc(-c2nnc(SCC(=O)Nc3ccccc3F)o2)cc1` and answer again.
stdout: active

stdin: Also `Cc1ccccc1-c1nc(-c2ccccn2)no1` ?
stdout: active

stdin: Next compound up: `CCOc1ccc(OCc2cccc(C(=O)O)c2)cc1`
stdout: active

stdin: Try this compound next: `CN(C)c1ccc(/C=C(\C#N)c2ccccn2)cc1`
stdout: active

---

target: PEG-3 (UniProt Q6IN02); test: Peg3 promoter luciferase inhibitors, potency, dose response, cell-based, HeLa, CREF/GAPDH counter-screen panel (AID 624167); details: HeLa PEG-Prom luciferase reporter, overnight, CREF/GAPDH counter-screens, mean of runs
Calls of active or inactive are those of the source.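 How the source made its calls: active means mean IC50 for reducing PEG3 promoter reporter signal at or below a set limit, with IC50 above the limit in both counter screens; inactive means the rest, including counter screen hits.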
quantityKind: IC50

Some solved entries appear below for comparison.
stdin: Param readout= IC50; system= PEG-3 (UniProt Q6IN02); entry= `O=C1c2cccc3cc([N+](=O)[O-])cc(c23)C(=O)N1CCN1CCCC1` ; returns value.
stdout: 5.57 µM

stdin: Now consider `Cc1cccc(NC(=O)CSc2nc3ccccc3c3nc(CCc4c(C)n[nH]c4C)nn23)c1` and answer again.
stdout: inactive

stdin: Do the same for `Cc1nc(N2CCN(c3ccccn3)CC2)c2c(C)c(C(=O)Nc3ccccc3F)sc2n1` please
stdout: inactive

stdin: Try the molecule CC(NNC(=S)N1CCN(c2ccccn2)CC1)c1nccc2ccccc12 (stereo not given)
stdout: inactive

Below are 6 molecules. Give each one its IC50.
1. O=C(NC1CCCCC1)C(c1cccnc1)N(C(=O)CCl)c1cccc(Cl)c1 (stereo not given)
2. NC(=O)C1CCN(C2=C(Cl)C(=O)c3ccccc3C2=O)CC1
3. CCN(C(=O)CSc1nc2n[nH]c(C)c2c(=N)n1-c1ccc(Cl)c(C)c1)c1cccc(C)c1
4. CCC(=O)NC(c1cccs1)c1cc(Cl)c2cccnc2c1O (stereo not given)
5. COc1ccccc1Nc1nc(-c2sc(NC(=O)c3ccco3)nc2C)cs1
6. O=C(/C=C/c1ccccc1)NC(NC(=S)Nc1cccc(Cl)c1)C(Cl)(Cl)Cl (stereo not given)

stdout:
1. 15.5 µM
2. 17.3 µM
3. 20 µM
4. 4.68 µM
5. inactive
6. 14.3 µM
